# testedOn: T1, human soluble TNFR1, C-terminally 6His-tagged (sTNFR1-6His, residues 1-211), SEQ. ID NO. P1 (human)
# T1 chain: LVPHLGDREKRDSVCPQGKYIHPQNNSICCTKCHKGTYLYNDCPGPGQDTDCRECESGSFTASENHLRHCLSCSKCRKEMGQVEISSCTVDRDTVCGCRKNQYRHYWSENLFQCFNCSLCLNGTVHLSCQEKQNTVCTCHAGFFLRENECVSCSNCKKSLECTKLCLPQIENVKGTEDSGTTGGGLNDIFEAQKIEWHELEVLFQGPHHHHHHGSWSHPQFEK
# measurementDescription: TR-FRET displacement of biotinylated peptide SEQ ID NO. 1 from sTNFR1-6His; 4-parameter fit
measuredQuantity: IC50 (nM)
Numeric only. Scale: nM

Lab note: measured IC50 of FYSWGNYWSYYGWCGEE (modifications not checked) [SEQ ID NO. 289 (Example No. 289) macrocyclic peptide] was 9.87
